Hey, just so you know, these numbers are from ChEMBL document CHEMBL4665727.

- tested.target: UniProt P10636
- assay.details: Binding affinity to tau (unknown origin) assessed as dissociation constant by isothermal titration calorimetry
property: pKd
Numbers only, as −log10 of the molar value.

Q: Reported pKd for CCn1cc(CNCc2c[nH]nc2-c2ccc(-c3ccccc3)cc2)cn1 : what is it?
Result: 6.07

* * *

- tested.target: Acetylcholinesterase (Homo sapiens)
- Sequence (P22303 whole entry): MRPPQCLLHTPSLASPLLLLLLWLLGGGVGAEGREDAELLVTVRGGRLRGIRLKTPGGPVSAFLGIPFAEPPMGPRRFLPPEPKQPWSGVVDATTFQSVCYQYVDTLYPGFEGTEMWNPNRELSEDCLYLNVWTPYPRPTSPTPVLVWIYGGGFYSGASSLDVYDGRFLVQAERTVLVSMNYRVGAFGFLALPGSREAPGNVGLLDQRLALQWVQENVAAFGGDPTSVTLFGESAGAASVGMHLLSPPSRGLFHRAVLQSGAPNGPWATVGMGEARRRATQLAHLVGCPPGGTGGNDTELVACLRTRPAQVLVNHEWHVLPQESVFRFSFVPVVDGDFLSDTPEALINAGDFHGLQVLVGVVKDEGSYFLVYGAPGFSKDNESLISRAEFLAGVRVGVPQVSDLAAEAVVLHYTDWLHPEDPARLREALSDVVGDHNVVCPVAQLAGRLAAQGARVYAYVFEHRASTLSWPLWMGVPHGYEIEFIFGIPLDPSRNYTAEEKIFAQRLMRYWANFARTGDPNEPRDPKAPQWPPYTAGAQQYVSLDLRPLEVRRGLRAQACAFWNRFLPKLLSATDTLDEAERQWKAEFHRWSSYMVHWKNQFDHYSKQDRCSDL
property: IC50
Give the value; after it, write the unit.

Q: Reported IC50 for CCn1cc(CNCc2c[nH]nc2-c2ccc(-c3ccccc3)cc2)cn1 : what is it?
Result: 350 nM

* * *

For each record, write down the corresponding viability at 10 µM.
- Tested on: SH-SY5Y
- assay.details: Protection against amyloid beta oligomer-induced cytotoxicity in human SH-SY5Y cells expressing wild-type Tau assessed as cell viability at 10 uM by MTT assay
- Assay type: functional
- applied.conditions: read-out: Activity
One number for each entry, in %.

Examples with their reported viability at 10 µM follow.
CCn1cc(CNCc2c[nH]nc2-c2ccc(-c3ccccc3)cc2)cn1 : 75.1
COc1cc2c(cc1OC)C(=O)C(CC1CCN(Cc3ccccc3)CC1)C2 (stereo not given) [DONEPEZIL] : 39.3
Nc1c2c(nc3ccccc13)CCCC2 [TACRINE] : 29.5
CN(C)c1ccc2c(c1)Sc1cc(N(C)C)ccc1N2 [HYDROMETHYLTHIONINE] : 32.1

Q: Reported viability at 10 µM for CC(C)c1ccc2c(c1)c(SC(C)(C)C)c(CC(C)(C)C(=O)O)n2Cc1ccc(Cl)cc1 : what is it?
Result: 52.4

* * *

- tested.target: Microtubule-associated protein tau (Homo sapiens, UniProt P10636)
- Sequence (P10636 whole entry): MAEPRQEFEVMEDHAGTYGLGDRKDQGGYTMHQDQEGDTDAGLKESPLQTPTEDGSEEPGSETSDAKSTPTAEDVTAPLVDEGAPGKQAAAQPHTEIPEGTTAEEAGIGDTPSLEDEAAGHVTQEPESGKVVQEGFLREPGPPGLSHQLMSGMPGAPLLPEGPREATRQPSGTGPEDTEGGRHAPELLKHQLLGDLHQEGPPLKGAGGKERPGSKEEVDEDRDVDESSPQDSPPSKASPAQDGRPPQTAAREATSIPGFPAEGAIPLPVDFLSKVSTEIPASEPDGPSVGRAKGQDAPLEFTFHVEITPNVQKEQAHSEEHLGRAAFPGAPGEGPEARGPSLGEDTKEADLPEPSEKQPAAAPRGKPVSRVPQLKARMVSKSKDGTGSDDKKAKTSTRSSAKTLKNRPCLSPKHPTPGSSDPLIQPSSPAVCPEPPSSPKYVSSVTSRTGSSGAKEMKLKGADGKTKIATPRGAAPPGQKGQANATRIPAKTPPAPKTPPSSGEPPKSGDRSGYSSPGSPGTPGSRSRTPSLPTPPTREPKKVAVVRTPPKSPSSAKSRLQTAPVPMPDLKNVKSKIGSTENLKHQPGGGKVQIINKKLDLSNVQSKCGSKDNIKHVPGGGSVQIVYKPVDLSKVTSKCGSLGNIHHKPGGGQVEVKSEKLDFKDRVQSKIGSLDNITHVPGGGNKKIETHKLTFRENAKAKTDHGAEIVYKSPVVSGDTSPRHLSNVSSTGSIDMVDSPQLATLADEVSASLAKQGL
- assay.details: Binding affinity to tau (unknown origin) assessed as dissociation constant by SPR analysis
property: Kd (nM)
Give bare numbers, in nM.

Q: Reported Kd for CCn1cc(CNCc2c[nH]nc2-c2ccc(-c3ccccc3)cc2)cn1 : what is it?
Result: 590

* * *

- tested.target: Microtubule-associated protein tau (Homo sapiens)
- assay.details: Binding affinity to tau (unknown origin) assessed as dissociation constant by microscale thermophoresis assay
property: pKd
Numbers only, as −log10 of the molar value.

Q: Reported pKd for CCn1cc(CNCc2c[nH]nc2-c2ccc(-c3ccccc3)cc2)cn1 : what is it?
Result: 6.04

* * *

- tested.target: UniProt:P22303
property: pKd
Numbers only, as −log10 of the molar value.

Q: Reported pKd for CCn1cc(CNCc2c[nH]nc2-c2ccc(-c3ccccc3)cc2)cn1 : what is it?
Result: 5.85

* * *

- tested.target: Microtubule-associated protein tau (Homo sapiens)
- assay.details: Inhibition of tau oligomerization in human […] cells by TR-FRET assay
property: EC50 (nM)
Numbers only, in nM.

Q: Find the measured EC50: item CCn1cc(CNCc2c[nH]nc2-c2ccc(-c3ccccc3)cc2)cn1 , target or system Microtubule-associated protein tau (Homo sapiens).
Result: 250
